method description: soluble on expression in E. coli; label from the status in PepcDB or PDB records

sequence string: MSLRIGVAGVGKLGEFHTNLLKQIAAEASDVEFSGVFDLNPERLQEIGKKYGVACFSTLEELAASCDAAVIATTTSSHYAIARQLLEARLHLFIEKPITATLEEADKLIRIEQEKGLTIQVGHIERFNPALLAVEPYIGEPMYIQAERLSGFSRRVTDVSVVLDLMIHDIDLVLSLIKSDIRSIAASGVKVFSNELDMATARIEFENGAIANVTASRLSRSKLRKMRFFTRNPKSYASLDFTSGKSEVFRLVPPDQLSSKNPIKNFATKKILEQFGEIQESLKEMALDYVSPDVPKINALKEELEQFIDAIRKGKPAKVTSEEGRRALMVAGKITDEIRNNTADLDEGHHHHHH
soluble on expression in E. coli: soluble
--
sequence string: TAAVALVKANENAAAILNLKNAIQKTNAAVADVVQATQSLGTAVQAVQDHINSVVSPAITAANY
soluble on expression in E. coli: soluble
